Where do the numbers come from? From PubChem BioAssay (Tox21).

target: Luciferin 4-monooxygenase (Photinus pyralis) (UniProt P08659); experiment: qHTS assay to identify small molecule inhibitors of firefly luciferase (AID 1224835); note: potency is the fitted concentration of half-maximal effect; nearly all actives have a fitted effect of over 25% in size; details: purified P. pyralis luciferase, luminescence inhibition; series mostly up to 115 µM
Sequence (P08659 whole entry, looked up): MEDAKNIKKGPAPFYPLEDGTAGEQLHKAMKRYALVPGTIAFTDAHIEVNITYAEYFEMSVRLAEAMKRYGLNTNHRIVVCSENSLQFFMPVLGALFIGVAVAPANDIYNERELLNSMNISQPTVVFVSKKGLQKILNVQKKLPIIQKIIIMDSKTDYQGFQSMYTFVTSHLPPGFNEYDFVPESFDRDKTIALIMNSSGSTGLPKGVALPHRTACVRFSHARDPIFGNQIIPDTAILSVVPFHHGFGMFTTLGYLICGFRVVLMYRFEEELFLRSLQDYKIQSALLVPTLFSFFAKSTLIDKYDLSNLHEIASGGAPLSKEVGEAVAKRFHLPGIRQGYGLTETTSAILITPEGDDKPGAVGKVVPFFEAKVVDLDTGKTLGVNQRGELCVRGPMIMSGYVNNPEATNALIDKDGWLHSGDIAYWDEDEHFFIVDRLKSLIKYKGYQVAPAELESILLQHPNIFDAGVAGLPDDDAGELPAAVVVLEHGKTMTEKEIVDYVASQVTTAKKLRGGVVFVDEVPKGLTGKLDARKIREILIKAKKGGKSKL
Records with an inconclusive call do not appear. Calls of active or inactive are those of the source. Calls come from the whole dose curve; as a rule, active = well fitted inhibition curve with a large enough effect in the repeat runs; inconclusive = weak or mixed curves; inactive = flat fitted curve, though single readings scatter.
Field: Potency. Provide a value for each of the molecules that follow.

// recorded Potency for COc1ccc(-c2nc3ccc(C4=NNC(=O)CC4C)cc3[nH]2)cc1 (stereo unspecified) : 8.71 µM (active)

// recorded Potency for `CC(C)Nc1ccc(NC(C)C)c2c1C(=O)c1ccccc1C2=O` : 33 µM (active)

// recorded Potency for `O=C(OCCc1ccccc1)c1ccccc1` : 1 µM (active)

// recorded Potency for `O=C(Nc1ccccc1)c1ccccc1O` : 15.9 µM (active)

// recorded Potency for `COc1ccc(C(=O)c2ccc(OC)cc2O)c(O)c1` : 28.5 µM (active)

// recorded Potency for `CCOC(=O)NCCOc1ccc(Oc2ccccc2)cc1` : 31.7 µM (active)

---

test: A CellTox Green Cytotoxicity Assay to monitor cytotoxicity in HepG2 cells - 16 hour (AID 1224876); details: CellTox Green fluorescence; series mostly up to 76.8 µM; note: % is set by controls: 0 for no effect and ±100 for the full control effect; nearly all actives have a fitted effect of over 45% in size
Results filed as inconclusive are left out. Calls of active or inactive are those of the source. Calls come from the whole dose curve; as a rule, active = well fitted activation curve with a large enough effect in the repeat runs; inconclusive = weak or mixed curves; inactive = flat fitted curve, though single readings scatter.
Parameter Measured: cytotoxicity increase

# example entries with known answers
>>> result("C=CC(=O)OCCOCCOC(=O)C=C")
"inactive"
>>> result("COc1cc(Cl)c(OC)cc1N")
"inactive"
>>> result("CC(C)C[C@H]1C(=O)N2CCC[C@H]2[C@]2(O)O[C@](NC(=O)[C@@H]3C=C4c5cccc6[nH]c(Br)c(c56)C[C@H]4N(C)C3)(C(C)C)C(=O)N12")
"inactive"
>>> result("Brc1c2ccccc2cc2ccccc12")
"inactive"
>>> result("CC(C)Cc1ccc(C(C)C(=O)OCc2ccccn2)cc1 (configuration not stated)")
"inactive"

Let's switch to this molecule now.
// recorded cytotoxicity increase for `CCCCc1nc2cccnc2n1Cc1ccc(-c2ccccc2-c2nnn[nH]2)cc1` : inactive

---

assay: A CellTox Green Cytotoxicity Assay to monitor cytotoxicity in HepG2 cells - 40 hour (AID 1224879); conditions: CellTox Green fluorescence; series mostly up to 76.8 µM; note: % is set by controls: 0 for no effect and ±100 for the full control effect; nearly all actives have a fitted effect of over 40% in size
Results filed as inconclusive are left out. Calls of active or inactive are those of the source. Calls come from the whole dose curve; as a rule, active = well fitted activation curve with a large enough effect in the repeat runs; inconclusive = weak or mixed curves; inactive = flat fitted curve, though single readings scatter.
Parameter Measured: cytotoxicity increase

// recorded cytotoxicity increase for CC(CSC(=O)c1ccccc1)C(=O)N1C[C@@H](Sc2ccccc2)C[C@H]1C(=O)O (stereo partly specified) : -0.523% [at 15.8 µM] (inactive)

// recorded cytotoxicity increase for `C/C=C/C(=O)CC` : -0.322% [at 15.8 µM] (inactive)

// recorded cytotoxicity increase for `C/C(=C(\CCOP(=O)(O)O)SC(=O)c1ccccc1)N(C=O)Cc1cnc(C)nc1N` : -0.293% [at 6.97 µM] (inactive)

// recorded cytotoxicity increase for `NC(N)=NCCC[C@H](N)C(=O)O` : -3.66% [at 6.97 µM] (inactive)

// recorded cytotoxicity increase for `O=C(O)CNCC(=O)O` : -10.4% [at 6.97 µM] (inactive)

// recorded cytotoxicity increase for `NCC(=O)O` : 1.98% [at 15.8 µM] (inactive)

---

biological target: Nuclear receptor subfamily 1 group I member 2 (Rattus norvegicus) (UniProt Q9R1A7); experiment: Rat pregnane X receptor (rPXR) activation by small molecules, qHTS assay (AID 1346983); conditions: rPXR luciferase reporter cells, One-Glo luminescence, 24 h; stronger effect = higher value; note: % is set by controls: 0 for no effect and ±100 for the full control effect; nearly all actives have a fitted effect of over 20% in size
Sequence (Q9R1A7 whole entry, looked up): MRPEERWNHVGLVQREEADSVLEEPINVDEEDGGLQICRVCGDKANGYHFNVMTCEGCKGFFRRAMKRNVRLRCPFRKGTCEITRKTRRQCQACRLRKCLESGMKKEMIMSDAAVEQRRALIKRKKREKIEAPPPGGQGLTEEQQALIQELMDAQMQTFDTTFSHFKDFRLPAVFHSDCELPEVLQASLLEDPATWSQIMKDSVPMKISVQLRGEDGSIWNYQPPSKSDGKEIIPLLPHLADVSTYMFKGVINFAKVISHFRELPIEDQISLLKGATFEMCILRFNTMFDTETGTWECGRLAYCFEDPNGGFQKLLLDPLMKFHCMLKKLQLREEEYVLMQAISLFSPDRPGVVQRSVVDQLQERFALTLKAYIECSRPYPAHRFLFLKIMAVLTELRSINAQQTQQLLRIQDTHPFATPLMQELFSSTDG
Records with an inconclusive call do not appear.
Field: max activation. Provide a value for each of the molecules that follow.
A number alone suffices; assume %.

// recorded max activation for `COc1ccc(C(=O)N2CCN(CC(=O)N3CCOCC3)CC2)cc1` : -1.44

// recorded max activation for CCN(CC)CCOC(=O)C(Cc1cccc2ccccc12)CC1CCCO1 (configuration not stated) : 10.4

// recorded max activation for `NCc1ccccc1Sc1ccccc1CO` : -1.62

// recorded max activation for `Nc1ncn([C@H]2C[C@H](O)[C@@H](CO)O2)c(=O)n1` : 10.4

// recorded max activation for COc1ccnc(CS(=O)c2nc3ccc(OC(F)F)cc3[nH]2)c1OC (configuration not stated) : 0.184

// recorded max activation for `O=C(NCCO[N+](=O)[O-])c1cccnc1` : -6.7

// recorded max activation for `O=C1[C@H]2CCCC[C@H]2C(=O)N1CCCCN1CCN(c2nsc3ccccc23)CC1` : 2.09

// recorded max activation for `CCCCNc1ccc(C(=O)OCCOCCOCCOCCOCCOCCOCCOCCOCCOC)cc1` : -3.41

// recorded max activation for `C#CCN(C)CCCOc1ccc(Cl)cc1Cl` : -1.33

// recorded max activation for `CC(=O)[O][Al][O]C(C)=O` : -1.35

// recorded max activation for `Cc1[nH]c(C)c(Cl)c(=O)c1Cl` : -3.17

// recorded max activation for `CCCCc1ncc(/C=C(\Cc2cccs2)C(=O)O)n1Cc1ccc(C(=O)O)cc1` : -2.02
